Biological target: human MDR1-encoded P-gp (L-MDR1 cells) (Homo sapiens)
Sequence (P08183 whole entry): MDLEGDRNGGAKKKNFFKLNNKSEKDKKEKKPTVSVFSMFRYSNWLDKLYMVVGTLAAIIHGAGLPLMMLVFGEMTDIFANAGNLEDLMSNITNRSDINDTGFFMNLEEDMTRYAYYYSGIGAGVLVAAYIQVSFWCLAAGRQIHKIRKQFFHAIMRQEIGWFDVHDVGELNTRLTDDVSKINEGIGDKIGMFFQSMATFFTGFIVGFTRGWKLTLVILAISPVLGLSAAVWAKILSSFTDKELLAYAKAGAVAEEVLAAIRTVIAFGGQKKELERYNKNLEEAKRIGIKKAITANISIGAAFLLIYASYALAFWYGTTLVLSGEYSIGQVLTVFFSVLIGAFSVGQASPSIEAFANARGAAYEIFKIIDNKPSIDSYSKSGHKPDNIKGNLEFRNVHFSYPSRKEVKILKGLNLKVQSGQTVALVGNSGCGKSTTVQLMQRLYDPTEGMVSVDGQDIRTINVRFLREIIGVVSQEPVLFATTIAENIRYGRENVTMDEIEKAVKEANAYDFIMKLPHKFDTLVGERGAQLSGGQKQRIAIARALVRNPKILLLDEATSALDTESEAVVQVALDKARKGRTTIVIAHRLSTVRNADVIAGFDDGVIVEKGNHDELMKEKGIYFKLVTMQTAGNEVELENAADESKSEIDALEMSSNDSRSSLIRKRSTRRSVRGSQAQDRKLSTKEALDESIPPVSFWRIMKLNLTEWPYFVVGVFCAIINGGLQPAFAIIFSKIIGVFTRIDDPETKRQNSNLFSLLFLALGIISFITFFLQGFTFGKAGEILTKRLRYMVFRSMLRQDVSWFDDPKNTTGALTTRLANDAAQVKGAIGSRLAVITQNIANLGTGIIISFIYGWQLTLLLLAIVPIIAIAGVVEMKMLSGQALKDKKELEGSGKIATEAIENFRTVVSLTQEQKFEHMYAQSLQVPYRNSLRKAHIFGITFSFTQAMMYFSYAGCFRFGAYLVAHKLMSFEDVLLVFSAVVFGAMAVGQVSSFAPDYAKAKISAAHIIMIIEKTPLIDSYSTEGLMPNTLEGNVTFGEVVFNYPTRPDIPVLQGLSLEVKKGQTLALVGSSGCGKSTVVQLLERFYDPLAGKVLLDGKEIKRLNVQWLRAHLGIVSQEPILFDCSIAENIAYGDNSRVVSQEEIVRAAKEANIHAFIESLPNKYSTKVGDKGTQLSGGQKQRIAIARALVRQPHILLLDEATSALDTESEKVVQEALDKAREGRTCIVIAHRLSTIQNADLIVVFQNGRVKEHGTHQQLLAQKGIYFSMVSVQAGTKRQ
Assay: Uptake (intracellular concentration) of digoxin and ginsenosides in L-MDR1 cells
Format: in vitro ADME
Conditions: 10.0 µg/mL SLE
Description: LLC-PK1 cells, a cell line lacking P-gp, and the derived cell line L-MDR1, which over-express human MDR1-encoded P-gp, were grown in minimum essential medium with supplements at 37°C, 5% CO2, and 95% humidity. […] Transepithelial resistance was measured in each well using a Millicell ERS ohmmeter (Millipore, Bedford, MA); wells registering a resistance of 200 ohms or greater, after correcting for the resistance obtained in control blank wells, were used in the transport experiments. […]
Reported Increase of intracellular concentration by SLE values for the following compounds.
Numbers only here, please. The scale is fold.

Record excerpt, results attached:
CC(C)=CCC[C@](C)(O[C@@H]1O[C@H](CO[C@@H]2O[C@H](CO)[C@@H](O)[C@H](O)[C@H]2O)[C@@H](O)[C@H](O)[C@H]1O)[C@H]1CC[C@]2(C)[C@@H]1[C@H](O)C[C@@H]1[C@@]3(C)CC[C@H](O[C@@H]4O[C@H](CO)[C@@H](O)[C@H](O)[C@H]4O[C@@H]4O[C@H](CO)[C@@H](O)[C@H](O)[C@H]4O)C(C)(C)[C@@H]3CC[C@]12C [Rb1, ginsenoside Rb1] = 5.1
CC(C)=CCC[C@](C)(O[C@@H]1O[C@H](CO[C@@H]2OC[C@H](O)[C@H](O)[C@H]2O)[C@@H](O)[C@H](O)[C@H]1O)[C@H]1CC[C@]2(C)[C@@H]1[C@H](O)C[C@@H]1[C@@]3(C)CC[C@H](O[C@@H]4O[C@H](CO)[C@@H](O)[C@H](O)[C@H]4O[C@@H]4O[C@H](CO)[C@@H](O)[C@H](O)[C@H]4O)C(C)(C)[C@@H]3CC[C@]12C [Rb2, ginsenoside Rb2] = 3.7

Here is another compound to look at.
Q. Identify the reported Increase of intracellular concentration by SLE for the following entry. CC(C)=CCC[C@](C)(O[C@@H]1O[C@H](CO)[C@@H](O)[C@H](O)[C@H]1O)[C@H]1CC[C@]2(C)[C@@H]1[C@H](O)C[C@@H]1[C@@]3(C)CC[C@H](O[C@@H]4O[C@H](CO)[C@@H](O)[C@H](O)[C@H]4O[C@@H]4O[C@H](CO)[C@@H](O)[C@H](O)[C@H]4O)C(C)(C)[C@@H]3CC[C@]12C [Rd, ginsenoside Rd]
A. 4.3
